Conditions: in methanol, 288.15 K
measuredProperty: solubility (mole fraction)

Ask: Fill in the blank: the reported solubility (mole fraction) of O=c1c2ccccc2nc2n1CCc1c-2[nH]c2ccccc12 is ____.
Result: 7.33e-05

###

Details: in water, 283.15 K
measuredProperty: solubility (mole fraction)
Just the number.

Ask: Which solubility (mole fraction) value is on record for O=c1c2ccccc2nc2n1CCc1c-2[nH]c2ccccc12 ?
Result: 1.45e-09

###

Settings: in ethanol, 303.15 K
measuredProperty: solubility (mole fraction)
In your answer, state the number alone without any accompanying words.

Ask: Which solubility (mole fraction) is listed for O=c1c2ccccc2nc2n1CCc1c-2[nH]c2ccccc12 ?
Result: 0.000271
